Protocol description: protein stability index of a GFP-peptide fusion (yeast GPS) (PSI 1-4); higher = more stable; sorted into four equal gates, so the index is relative within each strain
Details: san1∆
Assay readout: protein stability index
Give bare numbers.

The examples below pair each entry with its known result.
# Sequence content, Assay readout, Readout number
data = [
    ("ILVDSLTGNQLPTPTPT [SWI1]", "protein stability index", 2.93),
    ("PVGRELDPISLILIPGE [RPN13]", "protein stability index", 3.13),
    ("GNPYIELNQDRLGGDDL [SNF5]", "protein stability index", 3.03),
    ("IHQYLFQEGVVVAKKDF [RPS10A]", "protein stability index", 1.93),
    ("REIESLIAEETNNKKLL [SMC3]", "protein stability index", 3.01),
]

State the recorded protein stability index for every item in the following list.
1. IAAYIRRHRNPDLQFIV [SMC1]
2. NFARQLLFNNDFPLLKV [RRP40]
3. RVWAEYATKRQEAIQQN [PRP8]

1. 1.2
2. 2.06
3. 2.61

###

Protocol description: protein stability index of a GFP-peptide fusion (yeast GPS) (PSI 1-4); higher = more stable; sorted into four equal gates, so the index is relative within each strain
Details: ubr1∆
Hi there, I'd appreciate the recorded protein stability index for every entry that follows.
Give bare numbers.

State the recorded protein stability index for every item in the following list.
1. RSDSYMLHKVLENKADP [RPT6]
2. LRDHALSLTAFTKNEEK [ITC1]
3. CFKPMSLTSKRLISQSL [RIP1]
4. ATASAIAATAVASLVLA [RPL4A]

1. 2.83
2. 1.86
3. 2.1
4. 1.88

State the recorded protein stability index for every item in the following list.
1. VLVVRGSKKGQEGKISS [RPL26A]
2. EDEEEFSIFNYFKMFPA [RPC34]
3. QFPEIAYPGKLICPQYG [CSL4]
4. NSIESKNLSLQTGTKPV [COR1]
5. SRSNFQGKHTKFENDEL [LRP1]
6. ATALQTCAGGRLFNVVV [SMC2]
7. KALDNACGAFININEFA [CDC53]
8. TIVTGGGSGNGDDVVND [RPP1]

1: 3.44; 2: 2.46; 3: 2.17; 4: 2.85; 5: 3.22; 6: 2.12; 7: 2.82; 8: 3.54

State the recorded protein stability index for every item in the following list.
1. ISAPSMEDEILSLGMDF [BRN1]
2. RPNLPTHNFKLSGVSNS [RGR1]
3. PHQSPDATRVFVNGVWH [RPB2]

1: 3.12; 2: 2.12; 3: 3.15

###

Protocol description: protein stability index of a GFP-peptide fusion (yeast GPS) (PSI 1-4); higher = more stable; sorted into four equal gates, so the index is relative within each strain
Details: ubr1∆
Assay readout: protein stability index
One number for each entry.

State the recorded protein stability index for every item in the following list.
1. YSALNSTYLPKLISAFD [RRP42]
2. KKFIEISDVKIQVAAFI [PRP8]
3. VEHLLRDVRDQAAGGLS [RPN8]
4. SYLETLTALGKEKEKER [MED2]
5. QTSRGLFGNNNTNNINN [YGL172W/NUP49]
6. GENDDDTLDGDLMDDMS [RPN3]
7. LNPNEYFSVTTARRNVS [SWI3]
8. RGNIKVMFATNRPNTLD [RPT1]

1. 2.39
2. 2.55
3. 1.07
4. 2.92
5. 3.14
6. 2.15
7. 2.19
8. 2.98

State the recorded protein stability index for every item in the following list.
1. VVVVGTVTDDARIFEFP [RPL18A]
2. ARYVIATSTKVSVEGVN [RPL6A]
3. EDQKVVDKALIAEIKKT [RPL6A]
4. FTGEKPIITGSTSTSSS [MED8]
5. ISIPKTCDEIQNFENDF [REC8]
6. DQTFPINCNKETIENVK [ECM29]
7. VHDKIWCCRSGSAADTQ [PRE3]

1. 2.79
2. 1.27
3. 3.61
4. 2.13
5. 2.85
6. 3.4
7. 2.65

State the recorded protein stability index for every item in the following list.
1. VVAKLEDKRKVRSAEYY [RPL16B]
2. TRSLKYGKLRNGMFCQV [RRP4]

1: 3.37; 2: 1.07

State the recorded protein stability index for every item in the following list.
1. KESEISHNENKMDFSSK [YIL149C/MLP2]
2. KEDTVSWFKQKYDADVL [RPL11A]
3. LCKTKMVCETDVPSEDD [RPO21]
4. QPMISPDNSIFGDTKSE [SWI3]
5. TSLKKIKDEIDDPFTKI [SWI1]
6. MQVYLVPIERVAQLKPF [RPC37]

1: 3.19; 2: 1.53; 3: 2.52; 4: 3.1; 5: 3.49; 6: 2.54

State the recorded protein stability index for every item in the following list.
1. NKVSYYGNPTSKESWRY [RTT102]
2. HPIRLYTRYLDRIYMLF [PRP8]
3. IVKRLYEYGAVSVLLIS [BRR2]
4. PPSVTLQDWQREDEFGS [YDL088C/ASM4]
5. ADKIVDEFPELKEPVED [NUT2]
6. NANQQFLPFNNSASNNG [SWI1]

1. 3.42
2. 2.4
3. 1.64
4. 3.24
5. 3.63
6. 3.02

// protein stability index lookup, sequence = DLVLGKPLADLRPLFTR [YLR335W/NUP2] , result: 2.27
